yeast fitness (ln) by entry:
B1: tRNA (parent)
chain: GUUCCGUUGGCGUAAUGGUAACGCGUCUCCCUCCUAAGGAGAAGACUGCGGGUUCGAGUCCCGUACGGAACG

- Variants of: B1
- Test Protocol: yeast fitness, log relative to wild type (ln ratio); higher = fitter; tRNA-Arg(CCU), competitive growth, 37 C, 1 M NaCl

>  <Variant Name>
G1A U2C G6A A43C C46U A69G A70G C71U

>  <yeast fitness (ln)>
-0.119

$$$$
>  <Variant Name>
U2G C27U A69G A70G C71U

>  <yeast fitness (ln)>
-0.178

$$$$
>  <Variant Name>
U2G C27U A43C C46U C66U A70U

>  <yeast fitness (ln)>
-0.271

$$$$
>  <Variant Name>
U2C C27U C46U A69G A70G

>  <yeast fitness (ln)>
-0.0283

$$$$
>  <Variant Name>
G1A U2C G6A C27U A43C C46U C66U A69G A70U C71U

>  <yeast fitness (ln)>
-0.555

$$$$
>  <Variant Name>
G1A G6A A43C A70G

>  <yeast fitness (ln)>
-0.12

$$$$
>  <Variant Name>
G1A G6A C27U C66U

>  <yeast fitness (ln)>
-0.283

$$$$
>  <Variant Name>
G1A U2G C27U C46U C66U A69G C71U

>  <yeast fitness (ln)>
-0.307

$$$$
>  <Variant Name>
G1A U2G C27U A43C A69G A70G C71U

>  <yeast fitness (ln)>
-0.262

$$$$
>  <Variant Name>
G1A U2G C27U C46U C66A A69G A70U

>  <yeast fitness (ln)>
-0.191

$$$$
>  <Variant Name>
G1A U2G G6A C46U C66U A69G A70U

>  <yeast fitness (ln)>
-0.383

$$$$
>  <Variant Name>
G6A C46U C66A C71U

>  <yeast fitness (ln)>
-0.349

$$$$
>  <Variant Name>
G1A G6A A43C C46U C66U A69G C71U

>  <yeast fitness (ln)>
-0.252

$$$$
>  <Variant Name>
G1A G6A A43C C46U C66A C71U

>  <yeast fitness (ln)>
-0.26

$$$$
>  <Variant Name>
G1A U2G G6U C27U C46U C66U C71U

>  <yeast fitness (ln)>
-0.285

$$$$
>  <Variant Name>
G1A U2G G6U C27U C66U A69G A70G

>  <yeast fitness (ln)>
-0.333

$$$$
>  <Variant Name>
G1A U2G A43C C46U C66A A70U C71U

>  <yeast fitness (ln)>
-0.168

$$$$
>  <Variant Name>
U2G G6U A70U C71U

>  <yeast fitness (ln)>
-0.109

$$$$
>  <Variant Name>
U2C G6U C27U C46U C71U

>  <yeast fitness (ln)>
-0.235

$$$$
>  <Variant Name>
G1A U2C G6U A43C C46U A69G A70U C71U

>  <yeast fitness (ln)>
-0.343

$$$$
>  <Variant Name>
U2G G6A C27U A43C C66U A70G

>  <yeast fitness (ln)>
-0.223

$$$$
>  <Variant Name>
U2C G6A C27U C46U C66U C71U

>  <yeast fitness (ln)>
-0.119

$$$$
